target: Translocator protein (Rattus norvegicus); assay: Inhibition of binding of [3H]-PK 11195 to peripheral-type benzodiazepine receptor (PBR) from rat cortex homogenate
Exercise: for every item that follows, state its recorded IC50.

query: Note IC50 for the compound shown: CC(=O)OC1=C(c2ccccc2)Oc2cc3ccccc3cc2-n2cccc21
result: 278 nM

query: Note IC50 for the compound shown: COc1ccc(C2=C(OC(=O)c3cccnc3)c3cccn3-c3ccccc3S2)cc1
result: > 100000 nM

query: Note IC50 for the compound shown: CC(=O)OC1=C(c2ccccc2)Oc2ccccc2-n2cccc21
result: 12.1 nM

query: Note IC50 for the compound shown: CC(=O)OC1=C(c2ccc(C)cc2)Oc2ccccc2-n2cccc21
result: 2.3 nM

query: Note IC50 for the compound shown: CCN(CC)C(=O)OC1=C(c2ccccc2)Oc2ccccc2-n2cccc21
result: 0.68 nM

----------
target: Translocator protein (Rattus norvegicus, UniProt P16257); experiment: Displacement [3H]-PK 11195 from rat adrenal peripheral-type benzodiazepine receptor (PBR)
Sequence (P16257 whole entry, looked up): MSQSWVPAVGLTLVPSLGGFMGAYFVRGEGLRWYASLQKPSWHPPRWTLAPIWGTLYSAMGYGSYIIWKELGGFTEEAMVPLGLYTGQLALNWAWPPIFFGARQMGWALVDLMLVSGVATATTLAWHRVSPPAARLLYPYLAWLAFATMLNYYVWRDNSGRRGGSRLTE
Exercise: for every item that follows, state its recorded pKi.
Please express pKi as -log10 of the molar concentration.

query: Note pKi for the molecule shown: CN(C)C(=O)OC1=C(c2ccccc2)Sc2c(Cl)cccc2-n2cccc21
result: 8.60

query: Note pKi for the molecule shown: CN(C)C(=O)OC1=C(c2ccc(N=[N+]=[N-])cc2)Oc2ccccc2-n2cccc21
result: 8.32

query: Note pKi for the molecule shown: CCN(CC)C(=O)OC1=C(c2ccc(C)cc2)Oc2ccccc2-n2cccc21
result: 8.72

query: Note pKi for the molecule shown: CC(=O)OC1=C(c2ccc(C)cc2)Oc2ccccc2-n2cccc21
result: 8.55

----------
target: Translocator protein (Rattus norvegicus, UniProt P16257); test: Binding affinity against peripheral-type benzodiazepine receptor (PBR) from rat cortex homogenate using [3H]-PK 11195 as radioligand
measured_parameter: Ki (nM)
All answers are understood in nM, so give the number only.

query: Note Ki for the compound shown: CCN(CC)C(=S)OC1=C(c2ccccc2)Oc2ccccc2-n2cccc21
result: 1.5

query: Note Ki for the compound shown: CC(=O)OC1=C(c2ccccc2)Sc2ccccc2-n2cccc21
result: 7.6

query: Note Ki for the compound shown: COC(=O)C1=C(c2ccccc2)Oc2ccccc2-n2cccc21
result: 57.8

query: Note Ki for the compound shown: CCN(CC)C(=O)OC1=C(c2ccc(C)cc2)Oc2ccccc2-n2cccc21
result: 0.36

query: Note Ki for the compound shown: CC(=O)OC1=C(c2ccc3ccccc3c2)Oc2ccccc2-n2cccc21
result: 30

query: Note Ki for the compound shown: CC(=O)OC1=C(c2ccccc2)Oc2ccccc2-n2cccc21
result: 4.7

query: Note Ki for the compound shown: CC(=O)OC1=C(c2ccccc2)Sc2cc(C)ccc2-n2cccc21
result: 44

query: Note Ki for the compound shown: CC(=O)OC1=C(c2ccccc2)Sc2ccc(C)cc2-n2cccc21
result: 263

query: Note Ki for the compound shown: CN(C)C(=O)OC1=C(c2ccc(N=[N+]=[N-])cc2)Oc2ccccc2-n2cccc21
result: 1.4

query: Note Ki for the compound shown: O=C(OC1=C(c2ccccc2)Oc2ccccc2-n2cccc21)C1CCCCC1
result: 32

query: Note Ki for the compound shown: CC(=O)OC1=C(c2ccccc2)Oc2cc3ccccc3cc2-n2cccc21
result: 108

query: Note Ki for the compound shown: CC(=O)OCC1=C(c2ccccc2)Oc2ccccc2-n2cccc21
result: 754

query: Note Ki for the compound shown: CCC1=C(OC(=O)N(C)C)c2cccn2-c2ccccc2O1
result: 230

query: Note Ki for the compound shown: CC(=O)C1=C(c2ccccc2)Oc2ccccc2-n2cccc21
result: 25.2

query: Note Ki for the compound shown: CN(C)C(=O)OC1=C(c2ccccc2)Sc2ccccc2-n2cccc21
result: 3.5

query: Note Ki for the compound shown: CN(C)C(=O)OC1=C(c2ccccc2)Oc2c(Cl)cccc2-n2cccc21
result: 0.51

query: Note Ki for the compound shown: CCN(CC)C(=O)OC1=C(c2ccccc2)Oc2ccccc2-n2cccc21
result: 0.26

query: Note Ki for the compound shown: CC(=O)OC1=C(c2ccc(C)cc2)Oc2ccccc2-n2cccc21
result: 0.91

query: Note Ki for the compound shown: CN(C)C(=O)OC1=C(c2ccccc2)Sc2c(Cl)cccc2-n2cccc21
result: 1.8

query: Note Ki for the compound shown: CC(=O)OC1=C(c2ccc(Cl)cc2)Sc2ccccc2-n2cccc21
result: 11.7
